Assay: Experimental LogD (partition coefficient)
Conditions: not stated, Partition Coeff LogD
Positions of bridges follow the written chain, without caps; N, C: chain ends. Non-standard residues stand in square brackets, D forms with d. Residues, ends and D or L forms follow the SMILES beside them. R8 = C=CCCCCCC[C@@](C)(N)C(=O)O; Cba = N[C@@H](CC1CCC1)C(=O)O; S5 = C=CCCC[C@](C)(N)C(=O)O
measured.quantity: logD
I'd appreciate a reply containing only the number, no unit.

# count of solved cases: 4
{"molecule": "CC(C)C[C@@H]1NC(=O)[C@H](C)NC(=O)[C@H](Cc2c[nH]c3ccccc23)NC(=O)[C@H](Cc2ccc(O)cc2)NC(=O)[C@H](CCC(=O)O)NC(=O)[C@](C)(NC(=O)[C@H](Cc2ccccc2)NC(=O)[C@H](CO)NC(=O)[C@@H](NC(=O)[C@H](CO)NC(=O)CNC(=O)[C@H](CO)NC(=O)[C@@H](N)CCCCN=[N+]=[N-])[C@@H](C)O)CCCCCCC=CCCC[C@@](C)(C(N)=O)NC(=O)[C@H](CC(C)C)NC1=O", "value.measured": 2.46}
{"molecule": "CC(=O)N[C@@H](CCCCN=[N+]=[N-])C(=O)NCCC(=O)N[C@@H](CC(C)C)C(=O)N[C@H](C(=O)N[C@@H](Cc1ccccc1)C(=O)N[C@]1(C)CCCCCCC=CCCC[C@@](C)(C(=O)N[C@@H](CO)C(=O)N[C@@H](C)C(=O)N[C@@H](C)C(N)=O)NC(=O)[C@H](CCC(=O)O)NC(=O)[C@H](CCC(N)=O)NC(=O)[C@H](C)NC(=O)[C@H](Cc2c[nH]c3ccccc23)NC(=O)[C@H](Cc2ccc(O)cc2)NC(=O)[C@H](CCC(=O)O)NC1=O)[C@@H](C)O", "value.measured": 2.06}
{"molecule": "CC(=O)N[C@@H](CC(C)C)C(=O)N[C@H](C(=O)N[C@@H](Cc1ccccc1)C(=O)N[C@]1(C)CCCCCCC=CCCC[C@@](C)(C(=O)N[C@@H](CO)C(=O)N[C@@H](C)C(=O)N[C@@H](C)C(N)=O)NC(=O)[C@H](CC2CCC2)NC(=O)[C@H](C)NC(=O)[C@H](C)NC(=O)[C@H](Cc2c[nH]c3ccccc23)NC(=O)[C@H](Cc2ccc(O)cc2)NC(=O)[C@H](CCC(=O)O)NC1=O)[C@@H](C)O [MP-865] (Ac-LTF[R8]EYWAA[Cba][S5]SAA-NH2; staple 4-11)", "value.measured": 2.94}
{"molecule": "CC(=O)N[C@H](CC(C)C)C(=O)N[C@H](C(=O)N[C@@H](Cc1ccccc1)C(=O)NC(C)(C)C(=O)N[C@@H](CCC(=O)O)C(=O)N[C@@H](Cc1ccc(O)cc1)C(=O)N[C@@H](Cc1c[nH]c2ccccc12)C(=O)N[C@@H](CCC(N)=O)C(=O)N[C@@H](CC(C)C)C(=O)N[C@@H](CC1CCC1)C(=O)NC(C)(C)C(=O)N[C@@H](CO)C(=O)N[C@@H](C)C(=O)N[C@@H](C)C(N)=O)[C@@H](C)O", "value.measured": 2.16}

Look up and state reported logD for CC(=O)N[C@@H](CCCCN=[N+]=[N-])C(=O)NCCC(=O)N[C@@H](CC(C)C)C(=O)N[C@H](C(=O)N[C@@H](Cc1ccccc1)C(=O)N[C@]1(C)CCCCC#CC#CCCC[C@@](C)(C(=O)N[C@@H](CO)C(=O)N[C@@H](C)C(=O)N[C@@H](C)C(N)=O)NC(=O)[C@H](CC2CCC2)NC(=O)[C@H](CCC(N)=O)NC(=O)[C@H](C)NC(=O)[C@H](Cc2c[nH]c3ccccc23)NC(=O)[C@H](Cc2ccc(O)cc2)NC(=O)[C@H](CCC(=O)O)NC1=O)[C@@H](C)O
2.44
